- Tested on: CD2F1 mice, intracerebral P388 leukemia, median survival T/C%
- ASSAY_PROTOCOL: NCI In Vivo Anticancer Drug Screen. Data for tumor model P388 Leukemia (intracerebral) in CD2F1 (CDF1) mice
- PARTICULARS: endpoint: median survival time; dose: 32.0 mg/kg/injection; schedule: Q01DX009 (ip); vehicle: saline with Tween-80; higher = longer survival
Inconclusive results and toxic doses are left out.
For each entry below, report its T/C value.

So what's the measured T/C for this one? `CC/C(=C(/CC)c1ccc(O)cc1)c1ccc(O)cc1`
107 % of control

So what's the measured T/C for this one? `CCCCCC(=O)O[C@]1(C(C)=O)CC[C@H]2[C@@H]3CCC4=CC(=O)CC[C@]4(C)[C@H]3CC[C@@]21C`
98 % of control

So what's the measured T/C for this one? CC(=O)OCC1C(=O)OCC1C(=O)N1Cc2cc3ccccc3nc2C1 (stereo not given)
107 % of control

So what's the measured T/C for this one? `CCC(=O)O[C@H]1CC[C@H]2[C@@H]3CCC4=CC(=O)CC[C@]4(C)[C@H]3CC[C@]12C`
105 % of control

So what's the measured T/C for this one? `C#C[C@]1(O)CC[C@H]2[C@@H]3CCc4cc(O)ccc4[C@H]3CC[C@@]21C`
100 % of control
